- Method notes: physchem
- Condition context: organic solvent or mixture, thermodynamic from solid, Solubility (class)
Each item that follows carries a reported solubility.

Solved entries (count: 2):
CC(=O)Oc1ccccc1C(=O)O [Acetylsalicylic acid] :: 30 to 100 mg/mL
O=C(O)c1cc(=O)c2c(OCC(O)COc3cccc4oc(C(=O)O)cc(=O)c34)cccc2o1 [Cromolyn sodium] :: 30 to 100 mg/mL

// switching to the query molecule
Input CO[C@H]1/C=C/O[C@@]2(C)Oc3c(C)c(O)c4c(O)c(c(/C=N/N5CCN(C)CC5)c(O)c4c3C2=O)NC(=O)/C(C)=C\C=C\[C@H](C)[C@H](O)[C@@H](C)[C@@H](O)[C@@H](C)[C@H](OC(C)=O)[C@@H]1C [Rifampicin] . Output solubility: 30 to 100 mg/mL

---

- Method notes: physchem
- Condition context: organic solvent or mixture, thermodynamic from solid, Solubility, solvent DMSO
Quantity kind: solubility (mg/mL)
Just the number in mg/mL, nothing appended.

Input OC(Cn1cncn1)(Cn1cncn1)c1ccc(F)cc1F . Output solubility: 900

---

- Method notes: physchem
- Condition context: organic solvent or mixture, thermodynamic from solid, Solubility, solvent NMP
Quantity kind: solubility (mg/mL)
Just the number in mg/mL, nothing appended.

Input OC(Cn1cncn1)(Cn1cncn1)c1ccc(F)cc1F [Fluconazole] . Output solubility: 800

---

- Method notes: physchem
- Condition context: organic solvent or mixture, thermodynamic from solid, Solubility (class), solvent PEG 300
Quantity kind: solubility

Input OC(Cn1cncn1)(Cn1cncn1)c1ccc(F)cc1F . Output solubility: 30 to 100 mg/mL

---

- Method notes: physchem
- Condition context: organic solvent or mixture, thermodynamic from solid, Solubility, solvent Triacetin
Quantity kind: solubility (µg/mL)
Just the number in µg/mL, nothing appended.

Input OC(Cn1cncn1)(Cn1cncn1)c1ccc(F)cc1F . Output solubility: 5000
